Where do these numbers come from? They come from patent US20240317840A1.

# testTarget: HBsAg clinical mutation M133L (Hepatitis B virus)
# runDescription: sandwich ELISA, captured mutant HBsAg from culture supernatant;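 note: Anti-HBsAg antibodies tested for binding to mutant HBsAg secreted by stably transfected cell lines, supernatant incubated 1 h on antibody-coated plates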
Provide the reported IC50 of each item.
Answers are plain numbers, in nM.

# example entries with known answers
Per the records, this binder ( NOV3842 (antibody, human IgG1, lambda, V domains shown, Full human IgG1 (lambda) expressed in CHO cells) VH: EVQLLESGGGLVQPGGSRRLSCAASGFTFSYYGMNWVRQAPGKGLEWVSGITNVGSITYYADTVKGRFSISRDNSKNTLFLQMNSLRAEDTAVYYCAKVGVRSSSGMWDLDYWGQGTLVTVSS VL: SYVLTQPPSVSVAPGQTARLSCGGNNIGSKSLQWYQQKPGQAPVLVVNDESDRPSGIPERFSGSNSGNTATLTISRVEAGDEADYYCQVWDTSSDHVVFGGGTKLTVLG ) has IC50 equal to 0.084

So, NOV3839 (antibody, human IgG1, kappa, V domains shown, Full human IgG1 (kappa) expressed in CHO cells) VH: QVQLQESGGRLVRPGGSLRLSCAASGFIFTDYYMTWIRQAPGKGPEWIAFITSGGETTYYADSVKGRFTISRDNAKKSLFLQMYSLRADDTAVYYCVRAHFDIYQYDTRGDFTYYFDNWGLGTLVSVSS VL: EIVMTQSPATLSVSPGERVTLSCRASQSVSSSLAWYQQKPGRAPRLLIYGASTRATGVPARFSGGGSGTDFTLTISSLQSEDFAVYYCHQYINWPPGDTFGQGTRLDIKR ? Its IC50 was 0.085

Further cases:
Record NOV3838 (antibody, human IgG1, kappa, V domains shown, Full human IgG1 (kappa) expressed in CHO cells) VH: QVQLQESGGRLVRPGGSLRLSCAASGFIFTDYYMTWIRQAPGKGPEWIAFITSGGETTYYADSVKGRFTISRDNAKKSLFLQMYSLRADDTAVYYCVRAHFDLYQYDTRGDFTYYFDNWGLGTLVSVSS VL: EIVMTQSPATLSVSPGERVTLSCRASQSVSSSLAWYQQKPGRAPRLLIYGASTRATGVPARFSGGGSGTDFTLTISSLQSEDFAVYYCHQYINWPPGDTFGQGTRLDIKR . Reported IC50: 0.15
